The origin of these recorded values is patent US20210403601A1.

Listed here: items and their measured kon.
Target: T1, Taq DNA polymerase (Thermus aquaticus, UniProt P19821 1-832)
T1 construct: also called Taq enzyme; Taq DNA enzyme
T1 sequence (P19821 whole entry): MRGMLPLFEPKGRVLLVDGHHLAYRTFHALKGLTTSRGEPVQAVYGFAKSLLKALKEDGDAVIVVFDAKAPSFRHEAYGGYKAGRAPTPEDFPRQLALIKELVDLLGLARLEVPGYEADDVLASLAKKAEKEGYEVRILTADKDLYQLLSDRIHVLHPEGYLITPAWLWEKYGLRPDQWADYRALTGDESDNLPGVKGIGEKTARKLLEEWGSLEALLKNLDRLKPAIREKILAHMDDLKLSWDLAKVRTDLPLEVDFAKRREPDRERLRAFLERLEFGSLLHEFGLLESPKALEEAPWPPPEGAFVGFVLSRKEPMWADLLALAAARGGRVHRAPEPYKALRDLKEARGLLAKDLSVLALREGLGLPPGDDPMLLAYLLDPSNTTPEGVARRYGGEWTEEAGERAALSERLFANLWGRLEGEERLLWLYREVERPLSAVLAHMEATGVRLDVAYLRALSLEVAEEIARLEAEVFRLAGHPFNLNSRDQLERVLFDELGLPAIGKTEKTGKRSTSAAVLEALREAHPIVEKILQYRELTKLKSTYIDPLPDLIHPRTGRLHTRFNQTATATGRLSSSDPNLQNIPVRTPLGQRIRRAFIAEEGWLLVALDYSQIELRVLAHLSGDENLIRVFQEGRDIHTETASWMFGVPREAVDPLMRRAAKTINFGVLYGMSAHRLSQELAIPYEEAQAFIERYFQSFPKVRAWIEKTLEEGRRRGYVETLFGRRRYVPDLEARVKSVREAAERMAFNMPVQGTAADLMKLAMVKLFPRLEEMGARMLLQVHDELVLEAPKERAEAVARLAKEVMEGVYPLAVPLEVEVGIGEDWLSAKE
Assay: AMC sensor, antibody immobilised
Enter your answer as a number in M⁻¹ s⁻¹; do not include the unit.

Sample records with kon:
INSERT INTO assay_data (binder, meas_value) VALUES
  ('Mutation 1-53 (antibody, V domains shown, Mutation 1 background; CDRs built) VH: QVQLQQPGAELVKPGASVRLSCQTSVNTFSTYYIYWVKQRPGEGLEWIGGINPTSNPVFNEKFKSKATLTVDTSSSTAYMQLSSLTSVDSAVYYCTRSLIRRGYYFDYWGQGTALTVSS VL: DIQMTQTTSSLSASLGDRVTISCRASQDINNYINWYQQKPDGTIKLLIYYTSRLHSGLPSRFSGSGSGTDYSLTIANLEQEDIATYFCQQDDTLPVTFGAGTKVELKR', 99000),
  ('Mutation 1-20 (antibody, V domains shown, Mutation 1 background; CDRs built) VH: QVQLQQPGAELVKPGASVRLSCQTSVETFTTYYIYWVKQRPGEGLEWIGGLNPTSNPVFNEKFKSKATLTVDTSSSTAYMQLSSLTSVDSAVYYCTRSIIRRGYYFDYWGQGTALTVSS VL: DIQMTQTTSSLSASLGDRVTISCRASQDIQNYLNWYQQKPDGTIKLLIYYTSRLNSGIPSRFSGSGSGTDYSLTIANLEQEDIATYFCQQDDTIPLTFGAGTKVELKR', 88300);

Read the next record carefully.
Give the reported value of kon for this record: Mutation 1-60 (antibody, V domains shown, Mutation 1 background; CDRs built) VH: QVQLQQPGAELVKPGASVRLSCQTSVNTFTTYYIYWVKQRPGEGLEWIGGVNPTSGGPVFNEKFKSKATLTVDTSSSTAYMQLSSLTSVDSAVYYCTRSLLRRGYYFDYWGQGTALTVSS VL: DIQMTQTTSSLSASLGDRVTISCRASQDIQNYINWYQQKPDGTIKLLIYYTSRLHSGVPSRFSGSGSGTDYSLTIANLEQEDIATYFCQQDDTLPVTFGAGTKVELKR
84600
